From: patent US20260151494A1

target: T1, human CD71 extracellular domain (human, UniProt P02786 89-760); test: primary ELISA; also: test concentration or dose not given here
T1 construct: also called hCD71; CD71-ECD
T1 sequence (P02786 89-760): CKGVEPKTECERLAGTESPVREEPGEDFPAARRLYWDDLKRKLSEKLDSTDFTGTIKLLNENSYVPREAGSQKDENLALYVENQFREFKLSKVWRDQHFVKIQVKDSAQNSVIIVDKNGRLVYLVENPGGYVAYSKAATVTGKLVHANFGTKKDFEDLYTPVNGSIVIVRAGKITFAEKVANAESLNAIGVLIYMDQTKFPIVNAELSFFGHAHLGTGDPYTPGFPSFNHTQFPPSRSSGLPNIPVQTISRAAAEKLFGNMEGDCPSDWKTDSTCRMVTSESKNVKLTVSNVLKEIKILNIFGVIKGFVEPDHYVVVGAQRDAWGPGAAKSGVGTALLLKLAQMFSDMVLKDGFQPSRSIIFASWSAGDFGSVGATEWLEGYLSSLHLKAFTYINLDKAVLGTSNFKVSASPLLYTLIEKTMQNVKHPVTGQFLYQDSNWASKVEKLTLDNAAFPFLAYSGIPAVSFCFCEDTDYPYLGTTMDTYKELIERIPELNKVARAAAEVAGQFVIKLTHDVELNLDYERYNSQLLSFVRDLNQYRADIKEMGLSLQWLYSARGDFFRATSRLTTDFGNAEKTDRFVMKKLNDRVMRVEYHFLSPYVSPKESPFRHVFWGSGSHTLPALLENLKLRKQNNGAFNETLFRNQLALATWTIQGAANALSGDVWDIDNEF
ASSAY_METRIC: RLU (RLU)

BINDER	RLU, RLU
CD71-binding FN3 domain SEQ ID NO 354 (designed binder) MLPAPKNLVVSRVTEDSARLSWTAPDAAFDSFFIGYLEPQPPGEAIQLWVPGSERSYDLTGLKPGTEYNVTIQGVKGGFPSLPLVATFTT	5.75e+06
CD71-binding FN3 domain SEQ ID NO 357 (designed binder) MLPAPKNLVVSRVTEDSARLSWTAPDAAFDSFFIGYLEPQPPGEAIGLFVPGSERSYDLTGLKPGTEYNVTIQGVKGGFPSDPLVAYFTT	5.62e+06
